B1: TPR 5TU (parent)
chain: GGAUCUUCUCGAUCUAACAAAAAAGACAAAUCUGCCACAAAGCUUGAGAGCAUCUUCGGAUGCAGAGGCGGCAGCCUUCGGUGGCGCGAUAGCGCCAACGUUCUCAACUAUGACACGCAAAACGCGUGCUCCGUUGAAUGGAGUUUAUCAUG

- Variants of: B1
- ASSAY TEXT: polymerase ribozyme fitness, log enrichment relative to wild type (log ratio); higher = more active; in vitro selection for triplet polymerase activity
Fewer inactive variants are shown than the library holds.
Each entry gets no if its polymerase ribozyme fitness (log ratio) stays under -2, and yes if its polymerase ribozyme fitness (log ratio) is -2 or above.

MUTATIONS	DISCRETE LABEL
C18G C85A U145G A147U	yes
A28U G50U G59A	no
A20C U101G C149U	yes
A19C C129G U148G	no
C54A G80A C103G A110U A120U C132G	no
G83A A119C A137G G143A	no
C57A C96U G124A A150C	no
C69A G117A	yes
A30U A37C G50C A91G A150G	no
U13G A17U A21G A22G G50C G59A G70C C72U C125G	no
U6C U31G G50C C69G G94C A119U U151A	no
A3C U90A	no
A17C G50A G84U G143C U144G	no
C69G G86C A121C	no
U9G G88C C99A A119U	no
U61A C75U C125A G128A A142U A147G	no
C116G A119U	yes
U45A G84U C108G	no
U45G C76A G86A G141C C149G	no
U56G C114U	yes
G59A G88C	no
A39U A66C G68A C108U A121U U134A G143U	no
A17U A110U	no
A47U C96G C116U	yes
A20C G68C G141C	no
A30U A66G G68A C76U G141U A142U	no
C75U G84U U148A	no
A16U U55G C85G C103U A121U	no
C8A A64C C72A C95U C116G A121C A138C	no
A21C U55G G83U	yes
C32U A60G A142G	no
U9G C87G C93U C125A	no
U61C G80C C85U C99U U146A	no
A39C G59C G86A	no
A138U	no
A12G C38U C99U	yes
U53A U61A U109G	no
A3G C5G G84A G88A	no
G11A G58U C96U	yes
U13A C36A G50A C79U C96A	no
A16G U31A A39U C132U G136A	no
C57A C85U A106U C125G G136U U146G	no
C85U G117U	yes
C118U A142C	yes
G46U C85G	yes
G48C C93G	no

Cited source: the RNAGym collection of RNA variant scans (doi:10.1073/pnas.2313332121)
